Tested on: SCID mice bearing twin HEK293-CCK2i4svR and wtHEK293 tumors
Experiment: Biodistribution in SCID mice bearing twin HEK293-CCK2i4svR and wtHEK293 xenografts
Assay type: in vivo
Conditions: 4 h pi
Quick reference for Biodistribution, Heart among some molecules

MOLECULE	Biodistribution, Heart / %IA/g
CC(C)(C)C(=O)CN1C(=O)[C@H](NC(=O)Nc2cccc(C(=O)NCCOCCOCCOCCNC(=O)[C@H](CCC(=O)O)NC(=O)CN3CCN(CC(=O)[O-])CCN(CC(=O)[O-])CCN(CC(=O)[O-])CC3)c2)CN(C2CCCCC2)c2ccccc21.[177Lu+3] (stereo in doubt) [[^177Lu]Lu-GAS1]	0.41
CC(C)(C)C(=O)CN1C(=O)[C@H](NC(=O)Nc2cccc(C(=O)NCCOCCOCCOCCNC(=O)[C@@H](CCC(=O)O)NC(=O)CCC(C(=O)O)N3CCN(CC(=O)[O-])CCN(CC(=O)[O-])CCN(CC(=O)[O-])CC3)c2)CN(C2CCCCC2)c2ccccc21.[111In+3] (stereo partly shown) [[^111In]In-GAS3]	0.81
CC(C)(C)C(=O)CN1C(=O)[C@H](NC(=O)Nc2cccc(C(=O)NCCOCCOCCOCCNC(=O)[C@H](CCC(=O)O)NC(=O)CCC(C(=O)O)N3CCN(CC(=O)[O-])CCN(CC(=O)[O-])CCN(CC(=O)[O-])CC3)c2)CN(C2CCCCC2)c2ccccc21.[67Ga+3] (stereo in doubt) [[^67Ga]Ga-GAS3]	0.76
CC(C)(C)C(=O)CN1C(=O)[C@H](NC(=O)Nc2cccc(C(=O)NCCOCCOCCOCCNC(=O)[C@H](CCC(=O)O)NC(=O)CCC(C(=O)[O-])N3CCN(CC(=O)[O-])CCN(CC(=O)[O-])CC3)c2)CN(C2CCCCC2)c2ccccc21.[67Ga+3] (stereo in doubt) [[^67Ga]Ga-GAS2]	0.10

----------
Tested on: SCID mice bearing twin HEK293-CCK2i4svR and wtHEK293 tumors
Test: Biodistribution in SCID mice bearing twin HEK293-CCK2i4svR and wtHEK293 xenografts
Assay type: in vivo
Conditions: 4 h pi

COMPOUND	Biodistribution, Femur
CC(C)(C)C(=O)CN1C(=O)[C@H](NC(=O)Nc2cccc(C(=O)NCCOCCOCCOCCNC(=O)[C@H](CCC(=O)O)NC(=O)CCC(C(=O)[O-])N3CCN(CC(=O)[O-])CCN(CC(=O)[O-])CC3)c2)CN(C2CCCCC2)c2ccccc21.[67Ga+3] (stereo in doubt) [[^67Ga]Ga-GAS2]	0.13 ± 0.03 %IA/g
CC(C)(C)C(=O)CN1C(=O)[C@H](NC(=O)Nc2cccc(C(=O)NCCOCCOCCOCCNC(=O)[C@H](CCC(=O)O)NC(=O)CN3CCN(CC(=O)[O-])CCN(CC(=O)[O-])CCN(CC(=O)[O-])CC3)c2)CN(C2CCCCC2)c2ccccc21.[177Lu+3] (stereo in doubt) [[^177Lu]Lu-GAS1]	0.28 ± 0.03 %IA/g
CC(C)(C)C(=O)CN1C(=O)[C@H](NC(=O)Nc2cccc(C(=O)NCCOCCOCCOCCNC(=O)[C@H](CCC(=O)O)NC(=O)CCC(C(=O)O)N3CCN(CC(=O)[O-])CCN(CC(=O)[O-])CCN(CC(=O)[O-])CC3)c2)CN(C2CCCCC2)c2ccccc21.[67Ga+3] (stereo in doubt) [[^67Ga]Ga-GAS3]	0.78 ± 0.10 %IA/g
CC(C)(C)C(=O)CN1C(=O)[C@H](NC(=O)Nc2cccc(C(=O)NCCOCCOCCOCCNC(=O)[C@@H](CCC(=O)O)NC(=O)CCC(C(=O)O)N3CCN(CC(=O)[O-])CCN(CC(=O)[O-])CCN(CC(=O)[O-])CC3)c2)CN(C2CCCCC2)c2ccccc21.[111In+3] (some centres unmarked) [[^111In]In-GAS3]	0.60 ± 0.14 %IA/g
CC(C)(C)C(=O)CN1C(=O)[C@H](NC(=O)Nc2cccc(C(=O)NCCOCCOCCOCCNC(=O)[C@H](CCC(=O)O)NC(=O)CCC(C(=O)O)N3CCN(CC(=O)[O-])CCN(CC(=O)[O-])CCN(CC(=O)[O-])CC3)c2)CN(C2CCCCC2)c2ccccc21.[177Lu+3] (stereo in doubt) [[^177Lu]Lu-GAS3]	0.60 ± 0.07 %IA/g
CC(C)(C)C(=O)CN1C(=O)[C@H](NC(=O)Nc2cccc(C(=O)NCCOCCOCCOCCNC(=O)[C@H](CCC(=O)O)NC(=O)CN3CCN(CC(=O)[O-])CCN(CC(=O)[O-])CCN(CC(=O)[O-])CC3)c2)CN(C2CCCCC2)c2ccccc21.[111In+3] (stereo in doubt) [[^111In]In-GAS1]	0.77 ± 0.13 %IA/g
CC(C)(C)C(=O)CN1C(=O)[C@H](NC(=O)Nc2cccc(C(=O)NCCOCCOCCOCCNC(=O)[C@@H](CCC(=O)O)NC(=O)CCC(C(=O)[O-])N3CCN(CC(=O)[O-])CCN(CC(=O)[O-])CC3)c2)CN(C2CCCCC2)c2ccccc21.[111In+3] (some centres unmarked) [[^111In]In-GAS2]	1.15 ± 0.10 %IA/g
CC(C)(C)C(=O)CN1C(=O)[C@H](NC(=O)Nc2cccc(C(=O)NCCOCCOCCOCCNC(=O)[C@H](CCC(=O)O)NC(=O)CN3CCN(CC(=O)[O-])CCN(CC(=O)[O-])CCN(CC(=O)[O-])CC3)c2)CN(C2CCCCC2)c2ccccc21.[67Ga+3] (stereo in doubt) [[^67Ga]Ga-GAS1]	0.29 ± 0.16 %IA/g

These data points were gathered from paper PMC8954547.
